# TARGET_OF_ASSAY: T1, recombinant his-tag human LAG3-ECD protein (human, UniProt P18627 23-450)
# T1 construct: extracellular domain; not shown: his tag
# T1 sequence (looked up): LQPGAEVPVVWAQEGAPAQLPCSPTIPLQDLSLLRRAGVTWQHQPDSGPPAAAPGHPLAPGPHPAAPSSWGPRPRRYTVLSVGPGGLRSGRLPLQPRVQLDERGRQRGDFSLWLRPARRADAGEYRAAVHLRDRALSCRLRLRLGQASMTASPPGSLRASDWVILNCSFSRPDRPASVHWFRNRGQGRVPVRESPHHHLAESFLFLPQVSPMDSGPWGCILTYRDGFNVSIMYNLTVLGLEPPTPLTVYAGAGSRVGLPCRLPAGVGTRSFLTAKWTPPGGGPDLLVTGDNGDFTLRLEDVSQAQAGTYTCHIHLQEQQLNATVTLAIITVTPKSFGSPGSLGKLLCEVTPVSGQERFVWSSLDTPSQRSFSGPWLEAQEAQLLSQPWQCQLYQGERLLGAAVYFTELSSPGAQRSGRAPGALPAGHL
# MEASUREMENT_DESCRIPTION: SPR Biacore T200, antibody captured by anti-human Fc, LAG3-ECD-his injected
READOUT_NAME: Kd
Form entry: enter the amount, then its unit.

[
  {
    "BINDER": "NLAG3-HDB169-S27 (antibody, human IgG1, V domains shown, Short label tied by its unique suffix) VH: QVQLVQSGAEVKKPGSSVKVSCKASGGTFSSYAISWVRQAPGQGLEWMGGIIPIFGTANYAQKFQGRVTITADESTSTAYMELSSLRSEDTAVYYCTTAAPGSYYLVFHYWGQGTLVTVSS VL: DIQLTQSPSSLSASVGDRVTITCRASQTISSHLNWYQQKPGKAPKVLIYAASSLQSGVPSRFSGSGSGTEFTLTISSLQPDDFATYYCQQGNSFPFTFGPGTKVEIKR",
    "Kd": "0.0156 nM"
  }
]

Here is the next item to consider.
Please report Kd for the following binder: NLAG3-HDB169-S31 (antibody, human IgG1, V domains shown, Short label tied by its unique suffix) VH: QVQLVQSGAEVKKPGSSVKVSCKASGGTFSSYAISWVRQAPGQGLEWMGGIIPIFGTANYAQKFQGRVTITADESTSTAYMELSSLRSEDTAVYYCARDAGPVGYYGMDVWGQGTTVTVSS VL: AIRMTQSPSTLSASVGDRVTITCRASQGIAGWLAWYQQKPGKAPKLLIYAASSLQSGVPSRFSGSASGTDFTLTISNLQPEDFATYYCQQAKSFPLTFGGGTKVEIKR 0.03 nM
